Measured Residual activity (%) by item
biological target: FES^S700C (Homo sapiens, UniProt P07332, S700C); assay: In vitro TR-FRET kinase assay; format: biochemical; parameters: human FES cDNA encoding residues 448–822 or human FER cDNA encoding residues 448–820 was amplified by PCR; made in house; host or cells: E. coli BL21(DE3), co-expressing YopH phosphatase; settings: FES S700C; log[inhibitor] (M) = -6; mean, n=3
Sequence (P07332 448-822 S700C): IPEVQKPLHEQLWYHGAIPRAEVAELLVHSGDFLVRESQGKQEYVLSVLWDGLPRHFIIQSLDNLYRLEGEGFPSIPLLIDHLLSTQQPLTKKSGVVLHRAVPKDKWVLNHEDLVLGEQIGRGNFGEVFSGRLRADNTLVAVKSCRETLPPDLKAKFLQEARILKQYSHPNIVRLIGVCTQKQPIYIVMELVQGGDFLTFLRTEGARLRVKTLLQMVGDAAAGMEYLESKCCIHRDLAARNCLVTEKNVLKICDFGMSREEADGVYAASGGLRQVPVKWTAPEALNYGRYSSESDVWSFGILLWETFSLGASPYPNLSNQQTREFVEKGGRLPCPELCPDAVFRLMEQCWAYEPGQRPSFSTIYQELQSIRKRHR
Supply the numeric figure in %, leaving out any unit text.

// worked examples, Residual activity (%) included
given.smiles: COc1ccccc1Nc1ncc(Cl)c(Nc2ccccc2S(=O)(=O)C(C)C)n1
units.text: %
Residual activity (%): -0.06933

given.smiles: C=CC(=O)Nc1ccccc1Nc1nc(Nc2ccccc2OC)ncc1Cl
units.text: %
Residual activity (%): 28.2387

given.smiles: CCC(=O)Nc1ccccc1Nc1nc(Nc2ccccc2OC)ncc1Cl
units.text: %
Residual activity (%): 80.9285

Query: Short answer please: Residual activity (%), FES^S700C (Homo sapiens, UniProt P07332, S700C), entry `C=CC(=O)Nc1cccc(Nc2nc(Nc3ccccc3OC)ncc2Cl)c1`
Response: -0.8205

----------
molecular target: FES^S700C (Homo sapiens, UniProt P07332, S700C); test: In vitro TR-FRET kinase assay; type: biochemical; set-up: human FES cDNA encoding residues 448–822 or human FER cDNA encoding residues 448–820 was amplified by PCR; made in house; host or cells: E. coli BL21(DE3), co-expressing YopH phosphatase; conditions: FES S700C; log[inhibitor] (M) = -7.52288; mean, n=3
reported.metric: Residual activity (%)
Give the value; after it, write the unit.

// worked examples, Residual activity (%) included
given.smiles: CCC(=O)Nc1ccccc1Nc1nc(Nc2ccccc2OC)ncc1Cl
reading: 103.019%

given.smiles: C=CC(=O)Nc1cccc(Nc2nc(Nc3ccccc3OC)ncc2Cl)c1
reading: -0.1368%

given.smiles: COc1ccccc1Nc1ncc(Cl)c(Nc2ccccc2S(=O)(=O)C(C)C)n1
reading: 33.9502%

Let us move to another entry and its Residual activity (%).
Query: Please report the recorded Residual activity (%) for `C=CC(=O)Nc1ccccc1Nc1nc(Nc2ccccc2OC)ncc1Cl` .
Response: 96.1185%

----------
molecular target: FES^S700C (Homo sapiens, UniProt P07332, S700C); assay: In vitro TR-FRET kinase assay; assay type: biochemical; parameters: human FES cDNA encoding residues 448–822 or human FER cDNA encoding residues 448–820 was amplified by PCR; made in house; host or cells: E. coli BL21(DE3), co-expressing YopH phosphatase; conditions: FES S700C; log[inhibitor] (M) = -7; mean, n=3
Measured Residual activity (%) by item
Supply the numeric figure in %, leaving out any unit text.

given.smiles: COc1ccccc1Nc1ncc(Cl)c(Nc2ccccc2S(=O)(=O)C(C)C)n1
Residual activity (%): 14.3041
//
given.smiles: CCC(=O)Nc1ccccc1Nc1nc(Nc2ccccc2OC)ncc1Cl
Residual activity (%): 99.7119
//
given.smiles: C=CC(=O)Nc1cccc(Nc2nc(Nc3ccccc3OC)ncc2Cl)c1
Residual activity (%): -0.7051

Query: Please report the recorded Residual activity (%) for `C=CC(=O)Nc1ccccc1Nc1nc(Nc2ccccc2OC)ncc1Cl` .
Response: 75.3706

// provenance: paper PMC7316778
